testDetails: Human HepG2 cell viability assay in 384 well format
Format: toxicity, cell-based
Set-up: dose 125 nL, time 70.5 hour; concentration not given beside the values
measurementContext: HepG2 cells, read-out: Inhibition
assayEndpoint: cytotoxicity at 70.5 h (%)
Numbers only here, please. The scale is %.

molecule: Clc1nc2ccccn2c1CNCC1CN(C2CC2)CCO1 (configuration not stated)
unitAnnotation: %
assayResult: 4.07
--
molecule: CC(C)Oc1ncnc2c1CCN(c1cc(C(F)(F)F)ncn1)CC2
unitAnnotation: %
assayResult: 4.68
--
molecule: CNC(=O)CN1C(=O)CN(C(=O)COC)CCC(OC)c2ccccc21 (configuration not stated)
unitAnnotation: %
assayResult: 15.1

Challenge: For CC1CCCCN1CCNC(=O)NCc1ccc(C#N)cc1F (configuration not stated) , what is its reported cytotoxicity at 70.5 h?
Response given: -6.05

Challenge: For COC(=O)CCC(=O)N(Cc1ccc2cc[nH]c2c1)C1CC1 , what is its reported cytotoxicity at 70.5 h?
Response given: -17.3

The measurements presented in this section are drawn from ChEMBL document CHEMBL3507680.
